# Tested on: bombesin receptor
# ASSAY PROTOCOL: competitive binding assay, 125I-Bombesin, rat brain membranes
# REPORTED CONDITIONS: inhibition of 0.01 nM 125I-Bombesin binding; rat brain membranes; test concentration not given
Square brackets hold non-standard residues; d marks the D form. Ends that are not written are not given here.
MEASURED QUANTITY: % Inhibition (%)
Entry rule: numbers only, all in %.

Request: Give its % Inhibition value. Item: D-Phe-Gln-Trp-Ala-Val-Cys-His-Leu-Leu-NH2 ([dF]QWAVCHLL-NH2; also: Re metal complex (oxorhenium(V) N3S1 chelate via Cys)) [9-4]
Result: 75

Request: Give its % Inhibition value. Item: D-Phe-Gln-Cys-Trp-Ala-Val-Gly-His-Leu-Leu-NH2 ([dF]QCWAVGHLL-NH2; also: oxorhenium(V) N3S1 tetradentate complex via Cys) [8-8]
Result: 62

Request: Give its % Inhibition value. Item: Trp-Ala-Val-Cys-His-Leu-Leu-NH2 (WAVCHLL-NH2; not fully specified (bridges); printed as Trp-Ala-Val-Cys-His-Leu-Leu-NH2; also: oxorhenium(V) N3S1 chelate (Re=O) with Cys) [11-5]
Result: 18

Request: Give its % Inhibition value. Item: Pyr-Gln-Arg-Leu-Gly-Asn-Gln-Trp-Ala-Val-Gly-Cys-Leu-Nle-NH2 (QRLGNQWAVGCL; N-terminal pyroglutamate; C-terminal Nle-amide; printed: Gln-Arg-Leu-Gly-Asn-Gln-Trp-Ala-Val-Gly-Cys-Leu-) [7-3]
Result: 82

Request: Give its % Inhibition value. Item: D-Phe-Gln-Trp-Ala-Cys-Gly-His-Leu-Leu-NH2 ([dF]QWACGHLL-NH2; also: oxorhenium(V) N3S1 tetradentate complex via Cys) [9-5]
Result: 17

FYI, the data here is from patent US7351690B2.
